assayed_system: T1, cyno TfR extracellular domain (analogous construct to human TfR ecd) (cynomolgus monkey, UniProt Q5RDH6 87-760 (Pongo abelii entry))
T1 construct: also called cynoTfR ecd
T1 chain: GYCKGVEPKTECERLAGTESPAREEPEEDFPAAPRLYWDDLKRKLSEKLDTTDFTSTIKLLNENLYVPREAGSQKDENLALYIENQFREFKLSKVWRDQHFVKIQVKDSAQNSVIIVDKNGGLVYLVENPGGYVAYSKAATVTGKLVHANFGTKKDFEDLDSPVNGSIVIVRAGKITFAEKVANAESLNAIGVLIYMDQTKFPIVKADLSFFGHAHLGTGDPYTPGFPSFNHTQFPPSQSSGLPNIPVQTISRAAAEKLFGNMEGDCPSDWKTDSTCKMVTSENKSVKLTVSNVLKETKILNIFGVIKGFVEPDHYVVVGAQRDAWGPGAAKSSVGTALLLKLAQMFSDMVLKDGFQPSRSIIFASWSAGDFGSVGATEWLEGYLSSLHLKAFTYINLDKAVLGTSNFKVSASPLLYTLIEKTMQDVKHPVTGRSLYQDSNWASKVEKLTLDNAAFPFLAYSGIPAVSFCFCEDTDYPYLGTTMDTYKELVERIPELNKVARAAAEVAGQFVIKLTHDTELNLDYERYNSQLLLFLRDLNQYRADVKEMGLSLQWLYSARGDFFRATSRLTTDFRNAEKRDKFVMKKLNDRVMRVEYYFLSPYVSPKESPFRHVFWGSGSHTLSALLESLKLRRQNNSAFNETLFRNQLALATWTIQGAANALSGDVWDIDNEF
experiment_notes: ELISA, IgG;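 note: ELISA of IgG-containing supernatants tested in 1:5 serial dilutions for 1 h, bound antibody read out with HRP anti-kappa antibody and TMB substrate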
log10 of EC50 overview
Short version: log10 scale, EC50, µg/mL.

Examples with their reported log10 of EC50 follow.
binder	readout_kind	value
L96A (antibody, V domains shown, also called 7A4.v15 L96A (CDR-H3) IgG; copies: 2 + 2) VH: EVQLVQSGAEVKKPGASVKVSCKGSGYTFTDYAMHWVRQAPGQGLEWMGGISTYFGRTNYNQKFKGRVTMTVDTSISTAYMELSRLRSDDTAVYYCARGASGNYVMDYWGQGTTVTVSS VL: DIVMTQSPDSLAVSLGERATINCRASESVDSYGNSFMHWYQQKPGQPPKLLIYRASNLESGVPDRFSGSGSRTDFTLTISSLQAEDVAVYYCQQSNEAPPTFGQGTKLEIK	log10 of EC50	-1.54
Q90A (antibody, V domains shown, also called 7A4.v15 Q90A (CDR-L3) IgG) VH: EVQLVQSGAEVKKPGASVKVSCKGSGYTFTDYAMHWVRQAPGQGLEWMGGISTYFGRTNYNQKFKGRVTMTVDTSISTAYMELSRLRSDDTAVYYCARGLSGNYVMDYWGQGTTVTVSS VL: DIVMTQSPDSLAVSLGERATINCRASESVDSYGNSFMHWYQQKPGQPPKLLIYRASNLESGVPDRFSGSGSRTDFTLTISSLQAEDVAVYYCQASNEAPPTFGQGTKLEIK	log10 of EC50	-0.74
P96A (antibody, V domains shown, also called 7A4.v15 P96A (CDR-L3) IgG) VH: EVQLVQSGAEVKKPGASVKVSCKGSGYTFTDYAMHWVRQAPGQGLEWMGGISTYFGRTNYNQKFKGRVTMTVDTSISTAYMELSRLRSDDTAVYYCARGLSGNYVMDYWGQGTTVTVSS VL: DIVMTQSPDSLAVSLGERATINCRASESVDSYGNSFMHWYQQKPGQPPKLLIYRASNLESGVPDRFSGSGSRTDFTLTISSLQAEDVAVYYCQQSNEAPATFGQGTKLEIK	log10 of EC50	-1.79
S91A (antibody, V domains shown, also called 7A4.v15 S91A (CDR-L3) IgG) VH: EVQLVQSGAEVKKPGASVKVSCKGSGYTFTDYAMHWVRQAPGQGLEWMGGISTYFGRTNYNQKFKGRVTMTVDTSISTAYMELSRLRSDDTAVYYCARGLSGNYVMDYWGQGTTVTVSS VL: DIVMTQSPDSLAVSLGERATINCRASESVDSYGNSFMHWYQQKPGQPPKLLIYRASNLESGVPDRFSGSGSRTDFTLTISSLQAEDVAVYYCQQANEAPPTFGQGTKLEIK	log10 of EC50	-1.79
N92A (antibody, V domains shown, also called 7A4.v15 N92A (CDR-L3) IgG) VH: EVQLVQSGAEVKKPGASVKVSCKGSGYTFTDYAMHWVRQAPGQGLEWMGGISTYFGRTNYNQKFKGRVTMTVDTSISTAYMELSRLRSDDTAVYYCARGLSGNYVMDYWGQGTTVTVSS VL: DIVMTQSPDSLAVSLGERATINCRASESVDSYGNSFMHWYQQKPGQPPKLLIYRASNLESGVPDRFSGSGSRTDFTLTISSLQAEDVAVYYCQQSAEAPPTFGQGTKLEIK	log10 of EC50	-1.86

Enquiry: Query: log10 of EC50; subject: Y102A (antibody, V domains shown, also called 7A4.v15 Y102A (CDR-H3) IgG; copies: 2 + 2) VH: EVQLVQSGAEVKKPGASVKVSCKGSGYTFTDYAMHWVRQAPGQGLEWMGGISTYFGRTNYNQKFKGRVTMTVDTSISTAYMELSRLRSDDTAVYYCARGLSGNYVMDAWGQGTTVTVSS VL: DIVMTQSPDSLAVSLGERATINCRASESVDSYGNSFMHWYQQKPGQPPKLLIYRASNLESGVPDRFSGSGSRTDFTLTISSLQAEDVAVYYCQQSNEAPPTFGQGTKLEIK
Return: -1.75

Enquiry: Try the binder E93A (antibody, V domains shown, also called 7A4.v15 E93A (CDR-L3) IgG) VH: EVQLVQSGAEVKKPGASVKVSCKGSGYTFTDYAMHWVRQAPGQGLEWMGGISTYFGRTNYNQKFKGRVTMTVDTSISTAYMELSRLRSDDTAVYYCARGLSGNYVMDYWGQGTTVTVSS VL: DIVMTQSPDSLAVSLGERATINCRASESVDSYGNSFMHWYQQKPGQPPKLLIYRASNLESGVPDRFSGSGSRTDFTLTISSLQAEDVAVYYCQQSNAAPPTFGQGTKLEIK
Return: -1.75
